Measured GI50 values are reported for all entries that follow.
- System: UO-31
- Assay method text: NCI tumour cell line growth inhibition, 48 h
Active and inactive are the calls of the source. Rule as the data show it: active = GI50 up to about 1.1 µM and inactive = higher.

Here is how some compounds turned out for GI50.
- O=C1CCCCN1C(=O)c1ccc([N+](=O)[O-])cc1: > 100 µM (inactive)
- CCNc1cc2c3c(c1)CCCN3CCC2: 41.9 µM (inactive)
- COC1=C(OC)C(=O)C(Cc2c(Cl)nc3sccn23)=C(C)C1=O: 10.6 µM (inactive)
- CC(C)=CCc1c2c(c(O)c3c(=O)c4c(oc13)-c1ccc(O)cc1OC4C=C(C)C)C=CC(C)(C)O2 (configuration not stated): 18.3 µM (inactive)
- CC(=O)NNc1nc(C)c(C(/C=C/c2ccc([N+](=O)[O-])cc2)=N/NC(N)=O)s1: > 100 µM (inactive)

Q) Give the reported GI50 for this compound. O=C(Cn1c(-c2ccccc2)cc2ccccc21)N1CCOCC1
A) > 100 µM (inactive)

Q) Give the reported GI50 for this compound. N#Cc1c(N)c(C(=O)O)nn(-c2cccc(C(F)(F)F)c2)c1=O
A) 76.7 µM (inactive)

###

- Test system: EKVX
- Assay method text: NCI tumour cell line growth inhibition, 48 h
Calls of active or inactive are those of the source. Cut-off read from the data, not from the text of the source: active = GI50 up to about 1.1 µM and inactive = higher.
Returns: one label drawn from True = active, False = inactive

* CCOc1cc(NC(C)=O)ccc1C(=O)NNS(=O)(=O)c1ccc(Cl)cc1Cl | False
* CO/N=C1/C(n2[nH]c(=O)n(-c3ccccc3)c2=O)C2C=CC1n1c(=O)n(-c3ccccc3)c(=O)n12 (configuration not stated) | False
* O=C1/C(=C/c2ccc(O)cc2)NC(=S)N1CN1CCCCC1 | False

Q) So what was the verdict on COc1ccc(-n2c3c(c4cc(O)ccc42)C(=O)c2ccccc2C3=O)cc1 in this test?
A) False

Q) So what was the verdict on O=C1C2=C(c3ccccc31)C(c1ccccc1Cl)NC(S)=N2 (configuration not stated) in this test?
A) False

Q) So what was the verdict on O=C(c1cscc1CCc1ccccc1)c1cscc1CCc1ccccc1 in this test?
A) False

Q) So what was the verdict on COc1ccc2nc3cc(Cl)ccc3c(Nc3ccc(O)c(CN4CCN(C)CC4)c3)c2c1 in this test?
A) False

Q) So what was the verdict on O=S(=O)(O)c1ccc(/N=N/c2c(O)ccc3ccccc23)cc1 in this test?
A) False

Q) So what was the verdict on CCNc1cc2c3c(c1)CCCN3CCC2 in this test?
A) False

Q) So what was the verdict on O=C1c2ccccc2C(=O)c2nc3c(O)cccc3cc21 in this test?
A) False

Q) So what was the verdict on COC(=O)C1=C(C)N2[C@H](C(=O)O)CS[C@@]2(C)[C@H](C(=O)OC)[C@H]1c1cccc([N+](=O)[O-])c1 in this test?
A) False

Q) So what was the verdict on C[C@]12CC(c3ccccc3O1)C(C(=O)NC13CC4CC(CC(C4)C1)C3)C(=O)N2 (some centres not stated) in this test?
A) True

Q) So what was the verdict on O=C1C2C3C=CC(C2C(=O)N1CO)C1C2C(=O)N(CO)C(=O)C2C31 (configuration not stated) in this test?
A) False

Q) So what was the verdict on CCCSc1cc(Cl)c(C)cc1S(=O)(=O)n1ccnc1OCCCN(C)C in this test?
A) False

Q) So what was the verdict on N=C(N)NS(=O)(=O)c1ccc(NC(=O)c2ccc3nc4ccccc4c(Nc4ccc(S(N)(=O)=O)cc4)c3c2)cc1 in this test?
A) False

Q) So what was the verdict on Cn1c(=N)n[n+]([O-])c2ccccc21 in this test?
A) False

###

- Test system: HCC 2998
- Assay method text: NCI tumour cell line growth inhibition, 48 h
Active and inactive are the calls of the source. No stated cut-off is given here; in the data, active = GI50 up to about 1.1 µM and inactive = higher.
Measured GI50 values are reported for all entries that follow.

Here is how some compounds turned out for GI50.
* O=S1(=O)OCCOS(=O)(=O)C1(Br)Br | > 100 µM (inactive)
* O=C1C(=C/C=C2/SC(c3ccccc3)(c3ccccc3)c3ccccc32)C(=O)c2ccccc21 | > 100 µM (inactive)

Q) Give the reported GI50 for this compound. COc1ccc(N2CN3OC(=O)N(c4ccc(OC)cc4)[C@@]3(c3ccccc3)C2)cc1
A) 11.5 µM (inactive)

###

- Test system: MDA-MB-231
- Assay method text: NCI tumour cell line growth inhibition, 48 h
Active and inactive are the calls of the source. No stated cut-off is given here; in the data, active = GI50 up to about 1.1 µM and inactive = higher.
Measured GI50 values are reported for all entries that follow.

* CN1N=C(N)c2cn(C3OC(COP(=O)(O)O)C(O)C3O)c3ncnc1c23 (configuration not stated) | 10.9 µM (inactive)
* C/C1=C\CC[C@@]2(C)O[C@@H]2[C@H]2OC(=O)C(C)C2C[C@H]1O (some centres not stated) | > 100 µM (inactive)
* Cc1ccc(C(=O)N/N=C(\N=N\c2ccccc2)c2ccc(N(CCC#N)CCC#N)cc2C)cc1 | > 100 µM (inactive)

Q) Give the reported GI50 for this compound. CCc1nc(N)nc(N)c1-c1ccc(Cl)c(/N=N/N(C)C)c1
A) 48.8 µM (inactive)

###

- Test system: KM12
- Assay method text: NCI tumour cell line growth inhibition, 48 h
Activity calls are given as the source filed them. Rule as the data show it: active = GI50 up to about 1.1 µM and inactive = higher.
Property label: GI50

Here is how some molecules turned out for GI50.
• O=C1c2ccccc2C(=O)c2nc3c(O)cccc3cc21 = 47.6 µM (inactive)
• COC(=O)c1cc(CC(C)C)c2c(c1)[nH]c1ccccc12 = 91.2 µM (inactive)

Q) Give the reported GI50 for this molecule. N#CC(C#N)SCc1ccccc1
A) 19.7 µM (inactive)

Q) Give the reported GI50 for this molecule. O=C1C(=C/C=C2/SC(c3ccccc3)(c3ccccc3)c3ccccc32)C(=O)c2ccccc21
A) > 100 µM (inactive)

Q) Give the reported GI50 for this molecule. CC1=NOC(=O)/C1=C/c1ccc([N+](=O)[O-])cc1
A) > 100 µM (inactive)

###

- Test system: LOX IMVI
- Assay method text: NCI tumour cell line growth inhibition, 48 h
Calls of active or inactive are those of the source. No stated cut-off is given here; in the data, active = GI50 up to about 1.1 µM and inactive = higher.
Measured GI50 values are reported for all entries that follow.

Here is how some compounds turned out for GI50.
• O=[N+]([O-])c1ccc(/N=N/c2c(O)ccc3cc(S(=O)(=O)O)ccc23)cc1 = > 100 µM (inactive)
• CN(C)c1cccc(NC2=NCCO2)c1 = 31.9 µM (inactive)
• Cc1cccc(N(CCC#N)S(=O)(=O)c2ccccc2)c1 = > 100 µM (inactive)
• CC1(C)N=C(/C=N/O)C(C)(C)N1O = > 100 µM (inactive)

Q) Give the reported GI50 for this compound. CO/N=C1/C(n2[nH]c(=O)n(-c3ccccc3)c2=O)C2C=CC1n1c(=O)n(-c3ccccc3)c(=O)n12 (configuration not stated)
A) > 100 µM (inactive)

Q) Give the reported GI50 for this compound. Cc1ccccc1NC(=O)C(=O)C(C#N)c1ccccc1C (configuration not stated)
A) 22.5 µM (inactive)

Q) Give the reported GI50 for this compound. Nc1nc(N)c2cc(-c3cc4ccccc4[nH]3)ccc2n1
A) 18.5 µM (inactive)

Q) Give the reported GI50 for this compound. O=c1[nH]c(=O)n([C@H]2CCCO2)cc1F
A) 685 µM (inactive)

Q) Give the reported GI50 for this compound. CSC(=O)C[C@@]12O[C@@H]([C@@H](C)C3CCC4[C@@H]5C(O)CC6=CC(=O)C=C[C@]6(C)C5CC[C@@]43C)C[C@](C)(O1)C(C)(C)O2 (some centres not stated)
A) 12.1 µM (inactive)

Q) Give the reported GI50 for this compound. O=C(NNC(=O)c1ccncc1)c1ccncc1
A) > 100 µM (inactive)

Q) Give the reported GI50 for this compound. N#CCCC1(CCC#N)CCCCCCC(CCC#N)(CCC#N)C(=O)C1=O
A) > 100 µM (inactive)

Q) Give the reported GI50 for this compound. Cc1ccc(C2C(Cl)C(=O)N2NC(=O)c2ccc(N)cc2)cc1 (configuration not stated)
A) 11.2 µM (inactive)

Q) Give the reported GI50 for this compound. O=C1C(Cl)=C(Cl)C(=O)N1C1C2CC3CC(C2)CC1C3 (configuration not stated)
A) > 100 µM (inactive)

Q) Give the reported GI50 for this compound. O=C(OCc1ccccc1)C1(N2CN(C3(C(=O)OCc4ccccc4)CCCC3)CN(C3(C(=O)OCc4ccccc4)CCCC3)C2)CCCC1
A) > 10 µM (inactive)

###

Measured GI50 values are reported for all entries that follow.
- Tested on: IGROV-1
- Assay method text: NCI tumour cell line growth inhibition, 48 h
Activity calls are given as the source filed them. Cut-off read from the data, not from the text of the source: active = GI50 up to about 1.1 µM and inactive = higher.

- O=C1C(Cl)=C(Cl)C(=O)N1C1C2CC3CC(C2)CC1C3 (stereo not drawn): > 100 µM (inactive)
- CP(C)(=S)P(C)(C)=S: 78.5 µM (inactive)
- C=CCn1c2c(sc1=S)C(S)NC=N2 (stereo not drawn): 88.5 µM (inactive)

Q) Give the reported GI50 for this molecule. c1ccc(/N=C2/SC(c3ccccc3)(c3ccccc3)c3ccccc32)cc1
A) > 100 µM (inactive)

Q) Give the reported GI50 for this molecule. COC(=O)c1cc(/C=C/C(=O)Cc2ccccc2)cn1S(=O)(=O)c1ccccc1
A) > 100 µM (inactive)

Q) Give the reported GI50 for this molecule. CO/N=C1/C(n2[nH]c(=O)n(-c3ccccc3)c2=O)C2C=CC1n1c(=O)n(-c3ccccc3)c(=O)n12 (stereo not drawn)
A) > 100 µM (inactive)

Q) Give the reported GI50 for this molecule. C/C=C(/C)c1cnc(CC(C)C)c(=O)[nH]1
A) > 100 µM (inactive)

Q) Give the reported GI50 for this molecule. N#[N+][c-]1c(-c2ccccc2)n[nH]c1=O
A) > 100 µM (inactive)
